The values you see were collected from the supplement of paper PMC9732359.

- EXPERIMENT DESCRIPTION: protein stability index of a GFP-peptide fusion (yeast GPS) (PSI 1-4); higher = more stable; sorted into four equal gates, so the index is relative within each strain
- MEASUREMENT CONTEXT: doa10∆
VALUE TYPE: protein stability index
Numbers only.

Sample answers from the record:
[[record]]
input_sequence = "NLLCYYNLRSLNLINAK [RPN3]"
numeric_value = 1.48

[[record]]
input_sequence = "AIRKAPHNSKSLGFLQQ [RPN3]"
numeric_value = 2.9

[[record]]
input_sequence = "ASSPIILEEGSSGMGAF [RPN10]"
numeric_value = 3.04

[[record]]
input_sequence = "FNAPATGNGTTTTSNTS [YOR098C/NUP1]"
numeric_value = 2.44

[[record]]
input_sequence = "TQEIRPVNTGVLHVSAK [RRP40]"
numeric_value = 2.72

[[record]]
input_sequence = "LVTQHKAKYNTPKYRLV [RPL5]"
numeric_value = 1.43


// for each sequence in input: emit protein stability index
1. EYIFEAHEIIKREEKAM [CDC53]
2. VNASVDVDQHGNDNNSD [SWI3]
3. NQQQQQQQQQQQQRRQL [GAL11]
4. PYLLETYANVLIPCKYL [RPN7]
5. NINATNTSVLMKLKLMI [YCS4]

1. 1.77
2. 3.13
3. 2.79
4. 1.32
5. 2.08

----------
- EXPERIMENT DESCRIPTION: protein stability index of a GFP-peptide fusion (yeast GPS) (PSI 1-4); higher = more stable; sorted into four equal gates, so the index is relative within each strain
- MEASUREMENT CONTEXT: doa10∆
VALUE TYPE: protein stability index
Answers are plain numbers.

[[record]]
input_sequence = "LTFILGQLLSVKFLVYQ [YML031W/NDC1]"
value_type = "protein stability index"
numeric_value = 1.53

[[record]]
input_sequence = "FITRLAQGLLHLGKGTM [RPN1]"
value_type = "protein stability index"
numeric_value = 2.9

[[record]]
input_sequence = "NKNQLLKRNRIRNARSI [POP1]"
value_type = "protein stability index"
numeric_value = 2.93


// for each sequence in input: emit protein stability index
1. LFGNNNTNNINNSSSGM [YGL172W/NUP49]
2. QHLQQLKMQQQQQQQQQ [GAL11]
3. SPTENGVFDPASYAKYL [RPL22A]
4. PDPRSTVIPEDEEIIQL [RPO21]

[3.38, 2.21, 2.98, 2.65]

----------
Please respond with reported protein stability index for every item in the list.
- EXPERIMENT DESCRIPTION: protein stability index of a GFP-peptide fusion (yeast GPS) (PSI 1-4); higher = more stable; sorted into four equal gates, so the index is relative within each strain
- MEASUREMENT CONTEXT: ubr1∆
One number for each entry.

Sample answers from the record:
[[record]]
input_sequence = "GISDMCRLFFTELASKD [YCS4]"
numeric_value = 2.61

[[record]]
input_sequence = "FHSTYLMNGVKPFKSFL [FAS1]"
numeric_value = 2.87

[[record]]
input_sequence = "PLRLRLYDNFVSKFYDK [RPN9]"
numeric_value = 2.96

[[record]]
input_sequence = "RCGRRSFHVQKKTCSSC [RPL37A]"
numeric_value = 2.39

[[record]]
input_sequence = "SLTQSVCDLALRFGEGA [PUP2]"
numeric_value = 3.11

[[record]]
input_sequence = "QIISGNRVPDGFQDRSL [RPO31]"
numeric_value = 3.38


// for each sequence in input: emit protein stability index
1. TNSVRLFEVNPSQTLFS [SRP21]
2. AVFKIVLQPLLPRELPK [SNU114]
3. KDPDVPLVLLQQIPLLC [POP3]
4. RRAAYGVVRYVMESGAK [RPS3]
5. MDHEEARRKHVSGKILG [RPS22A]
6. GVLKPDITFFGEALPNK [SIR2]

1. 2.56
2. 2.18
3. 2.47
4. 1.84
5. 3.02
6. 3.35

// for each sequence in input: emit protein stability index
1. RHSGKVYPITLSTDATS [UBP6]
2. HPFGHALVAGIERYPSK [RPL27B]
3. NPNSTAITADLGSSEAE [YGL172W/NUP49]
4. KRVDFSGRTVISPDPNL [RPO31]

[2.02, 2.46, 2.76, 2.83]

// for each sequence in input: emit protein stability index
1. RELARIKKYASVVRVLV [RPL3]
2. NIQHLLYGKRFFPYYVH [PRE7]
3. KIRELEAELSSTKVENS [YIL149C/MLP2]
4. IDDRDYVGNKRLELAGQ [RET1]
5. NVGLCITIYDLLTVEEG [RPC25]
6. SKIIVFPRDGKAPEAEQ [RPL13B]
7. IRGNLMGKRVDFSARTV [RPO21]

[1.2, 1.3, 3.12, 3.58, 1.57, 3.33, 2.5]

// for each sequence in input: emit protein stability index
1. ETKDIRKQIQLLKKIIF [SRB4]
2. RFVIWTEAAFTKLDQVW [RPL4A]
3. DKQYRTAVATLLKELSK [SMC3]
4. FLIIVPKSTLDNWRREF [ISW2]
5. DLLPNSFAKLVPCEGKD [SMC2]

2.39
2.39
2.72
1.99
2.45

// for each sequence in input: emit protein stability index
1. LRTVKEVQFGLFSPEEV [RPO21]
2. RIQLMNDFTTKLINIKK [MED1]

[2.95, 2.97]
